- ASSAY OVERVIEW: NCI Yeast Anticancer Drug Screen. Data for the rad50 strain (AID 155);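 further: 0% = growth of vehicle-only cultures of the same strain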
- CONDITION INFO: S. cerevisiae rad50 strain growth inhibition; at 50.0 µM
The panel holds about 79,000 compounds, 15% with a hit somewhere; the sample as a whole holds those more often. Calls of active or inactive are those of the source. No stated cut-off is given here; in the data, active means growth inhibition above about 70%; inactive means the rest.
Write down one outcome, taken from class 1 (active), class 0 (inactive)

Task: In this assay, the call recorded for CC1=CC2OC3CC4OC(=O)/C=C/C=C/C(C(C)O)OCC(O)C(C)CC(=O)OCC2(CC1O)C4(C)C31CO1 (stereo not given) was what?
Output: class 1

Task: In this assay, the call recorded for CC(C)COP(=O)(O)OCC(C)C.[Al] was what?
Output: class 0

Task: In this assay, the call recorded for [CH3][Sn]([CH3])([Cl])[c]1cc[c]([Sn]([CH3])([CH3])[Cl])cc1 was what?
Output: class 1

Task: In this assay, the call recorded for CC1(C)N=C(N)N=C(N)N1CCCOc1ccc(NC(=O)c2ccc(S(=O)(=O)F)cc2)cc1 was what?
Output: class 0

Task: In this assay, the call recorded for COC1=CC2=CCC3C(CCC4(C)C3CCC4(C)OC(C)=O)C2(C)CC1 (stereo not given) was what?
Output: class 0

* * *

- ASSAY OVERVIEW: NCI Yeast Anticancer Drug Screen. Data for the sgs1 mgt1 strain (AID 161);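 further: 0% = growth of cultures given vehicle only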
- CONDITION INFO: S. cerevisiae sgs1 mgt1 strain, at 50.0 µM (retest, dose inferred, filed as 5.0)
Compounds without any hit were thinned out: in the full panel of roughly 79,000, 15% have a hit. The source made the active and inactive calls. Cut-off read from the data, not from the text of the source: active = growth inhibition above about 70%; inactive = the rest.
Write down one outcome, taken from active, inactive

[[record]]
molecule = "O=C(CBr)Nc1ccccc1Cl"
discrete_label = "active"


Please turn your attention to the following entry.
Task: In this assay, the call recorded for C[C@H]1CCC/C=C/[C@@H]2C[C@H](O)C[C@H]2[C@H](O)/C=C/C(=O)O1 was what?
Output: active

* * *

- ASSAY OVERVIEW: NCI Yeast Anticancer Drug Screen. Data for the rad52 strain (AID 147);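 further: 0% = growth of vehicle-treated control cultures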
- CONDITION INFO: S. cerevisiae rad52 mutant growth inhibition; at 11.0 µM
- Protocol: Growth inhibition of yeast strains with defined genetic alterations is measured as a screen for potential anti-cancer activity. Selected strains with alterations in DNA damage repair or cell cycle control were exposed to compounds and growth inhibition was measured relative to vehicle treated controls. The strain used in this assay is rad52
The panel holds about 79,000 compounds, 15% with a hit somewhere; the sample as a whole holds those more often. Calls of active or inactive are those of the source. Rule as the data show it: active = growth inhibition above about 70%; inactive = the rest.
Write down one outcome, taken from active, inactive

Consider the following illustrative entries.
[[record]]
molecule = "CN(C)CCSC1=Nc2ccc(Cl)cc2C(c2ccccc2Cl)=NC1"
discrete_label = "inactive"

[[record]]
molecule = "O=C1C2CC(Cl)C(SSC3CC4C(=O)N(SC(Cl)(Cl)C(Cl)Cl)C(=O)C4CC3Cl)CC2C(=O)N1SC(Cl)(Cl)C(Cl)Cl (configuration not stated)"
discrete_label = "active"


Task: In this assay, the call recorded for COc1cc2ccccc2c2cc([N+](=O)[O-])oc12 was what?
Output: active

Task: In this assay, the call recorded for Oc1ccc(Cl)cc1Cc1ccccc1 was what?
Output: active

Task: In this assay, the call recorded for COC(COC(=O)N1CCN(C=O)CC1)C1=C(N2CC2)C(=O)C(C)=C(N2CC2)C1=O (configuration not stated) was what?
Output: inactive
